Attribution: paper PMC3755730

molecular target: N2B (GluN2B), in N1/N2B (B-type) NMDA receptor (Mus musculus, UniProt Q01097); experiment: whole-cell patch clamp, EPSC dose-inhibition in N2A knockout neurons
Sequence (Q01097 27-1482, other chains not shown): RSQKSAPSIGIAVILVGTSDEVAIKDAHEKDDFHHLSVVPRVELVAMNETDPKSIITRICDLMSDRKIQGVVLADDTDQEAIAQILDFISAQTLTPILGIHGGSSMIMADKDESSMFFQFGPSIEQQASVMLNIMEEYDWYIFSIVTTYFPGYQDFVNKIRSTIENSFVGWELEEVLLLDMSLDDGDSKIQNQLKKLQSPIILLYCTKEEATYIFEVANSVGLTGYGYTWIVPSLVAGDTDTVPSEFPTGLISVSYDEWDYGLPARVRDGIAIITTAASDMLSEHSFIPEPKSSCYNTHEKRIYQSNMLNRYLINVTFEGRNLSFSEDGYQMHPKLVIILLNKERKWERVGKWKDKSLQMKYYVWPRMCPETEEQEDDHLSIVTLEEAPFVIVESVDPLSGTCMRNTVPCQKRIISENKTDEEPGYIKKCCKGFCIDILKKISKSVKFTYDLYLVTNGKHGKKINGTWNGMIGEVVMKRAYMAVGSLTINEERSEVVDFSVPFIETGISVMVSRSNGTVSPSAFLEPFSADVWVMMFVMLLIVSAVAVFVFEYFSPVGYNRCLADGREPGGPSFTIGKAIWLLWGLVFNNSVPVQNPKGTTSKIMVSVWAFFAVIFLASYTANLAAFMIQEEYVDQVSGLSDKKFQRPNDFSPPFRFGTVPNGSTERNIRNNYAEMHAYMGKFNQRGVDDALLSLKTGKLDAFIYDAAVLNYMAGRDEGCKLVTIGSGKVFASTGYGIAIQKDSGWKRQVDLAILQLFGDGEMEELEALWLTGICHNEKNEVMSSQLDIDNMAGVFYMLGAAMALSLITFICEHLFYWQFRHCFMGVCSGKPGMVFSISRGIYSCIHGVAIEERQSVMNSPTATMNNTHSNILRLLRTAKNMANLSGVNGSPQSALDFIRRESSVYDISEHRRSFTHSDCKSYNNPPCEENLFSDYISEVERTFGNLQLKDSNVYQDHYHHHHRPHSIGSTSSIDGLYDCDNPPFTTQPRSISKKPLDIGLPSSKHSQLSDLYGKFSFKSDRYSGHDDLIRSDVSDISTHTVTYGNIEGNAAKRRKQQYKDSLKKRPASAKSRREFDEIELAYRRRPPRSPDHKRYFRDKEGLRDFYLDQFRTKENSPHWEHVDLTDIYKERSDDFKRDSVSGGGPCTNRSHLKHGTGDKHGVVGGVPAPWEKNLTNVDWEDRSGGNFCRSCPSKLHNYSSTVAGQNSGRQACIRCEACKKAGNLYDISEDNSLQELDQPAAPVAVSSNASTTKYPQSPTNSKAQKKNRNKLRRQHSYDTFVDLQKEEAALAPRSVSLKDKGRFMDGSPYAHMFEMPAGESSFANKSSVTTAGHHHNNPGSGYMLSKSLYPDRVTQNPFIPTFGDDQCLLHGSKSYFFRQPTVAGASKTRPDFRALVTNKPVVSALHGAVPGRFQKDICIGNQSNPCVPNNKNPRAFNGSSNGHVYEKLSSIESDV
property: IC50 (nM)
Return type: number; implicit unit nM.

// query IC50 value for entry `C[C@H](N[C@@H](c1cccc2[nH]c(=O)c(=O)[nH]c12)P(=O)(O)O)c1ccc(Br)cc1`
119

---

target: N2A (GluN2A), in N1/N2A (A-type) NMDA receptor (Mus musculus, UniProt P35436); test: whole-cell patch clamp, EPSC dose-inhibition in N2B knockout neurons
Sequence (P35436 23-1464, other chains not shown): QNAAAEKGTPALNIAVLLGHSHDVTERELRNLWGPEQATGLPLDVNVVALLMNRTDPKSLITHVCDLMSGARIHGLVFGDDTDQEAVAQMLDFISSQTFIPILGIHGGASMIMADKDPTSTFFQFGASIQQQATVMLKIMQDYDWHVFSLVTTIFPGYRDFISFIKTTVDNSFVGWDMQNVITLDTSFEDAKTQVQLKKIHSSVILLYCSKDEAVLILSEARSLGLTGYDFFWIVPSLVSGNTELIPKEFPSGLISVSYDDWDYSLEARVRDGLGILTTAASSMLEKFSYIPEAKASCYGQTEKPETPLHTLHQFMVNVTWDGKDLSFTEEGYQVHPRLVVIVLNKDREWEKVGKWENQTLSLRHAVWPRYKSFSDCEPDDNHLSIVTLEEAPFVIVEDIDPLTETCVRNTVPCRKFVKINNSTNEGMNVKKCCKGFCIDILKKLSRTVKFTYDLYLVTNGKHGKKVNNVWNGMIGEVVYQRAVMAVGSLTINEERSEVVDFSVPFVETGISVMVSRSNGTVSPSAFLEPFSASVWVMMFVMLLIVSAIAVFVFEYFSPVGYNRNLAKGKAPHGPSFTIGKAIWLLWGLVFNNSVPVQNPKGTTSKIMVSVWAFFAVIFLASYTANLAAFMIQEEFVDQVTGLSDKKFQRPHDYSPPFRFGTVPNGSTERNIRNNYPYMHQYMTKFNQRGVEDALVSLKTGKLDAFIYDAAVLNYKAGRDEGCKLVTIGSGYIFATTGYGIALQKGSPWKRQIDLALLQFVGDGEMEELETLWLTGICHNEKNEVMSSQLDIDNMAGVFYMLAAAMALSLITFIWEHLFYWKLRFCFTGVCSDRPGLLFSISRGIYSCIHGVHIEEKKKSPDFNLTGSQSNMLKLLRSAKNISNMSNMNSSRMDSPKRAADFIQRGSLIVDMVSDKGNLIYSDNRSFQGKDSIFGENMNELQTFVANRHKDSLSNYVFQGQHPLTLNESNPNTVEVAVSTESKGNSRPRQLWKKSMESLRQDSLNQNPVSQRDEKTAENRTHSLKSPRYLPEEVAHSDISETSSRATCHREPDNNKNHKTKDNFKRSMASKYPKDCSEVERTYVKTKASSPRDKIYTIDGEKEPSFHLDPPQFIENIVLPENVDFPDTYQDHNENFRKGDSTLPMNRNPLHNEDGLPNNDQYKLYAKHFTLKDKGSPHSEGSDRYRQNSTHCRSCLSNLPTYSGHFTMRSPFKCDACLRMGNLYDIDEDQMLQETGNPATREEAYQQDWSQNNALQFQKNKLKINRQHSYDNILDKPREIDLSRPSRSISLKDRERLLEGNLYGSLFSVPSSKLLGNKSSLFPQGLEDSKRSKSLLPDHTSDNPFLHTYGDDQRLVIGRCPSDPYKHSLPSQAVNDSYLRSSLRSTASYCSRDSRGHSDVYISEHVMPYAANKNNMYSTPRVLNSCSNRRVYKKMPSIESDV
property: IC50 (nM)
The response must be a number in nM with no trailing unit.

Entry `C[C@H](N[C@@H](c1cccc2[nH]c(=O)c(=O)[nH]c12)P(=O)(O)O)c1ccc(Br)cc1` : reported IC50 = ?
10
